// note: pKi values for Histamine H3 receptor (Homo sapiens, UniProt Q9Y5N1) were reported in different studies
pKi: −log10 of the molar value.

Query :: Write down measured pKi (Histamine H3 receptor (Homo sapiens, UniProt Q9Y5N1)) for this compound. `C[C@@H]1CCCN1CCCOc1ccc(C(=O)CN2CCC(F)(F)CC2)cc1F`
Result :: 7.00 to 10.00

Query :: // output pKi; input `C[C@@H]1CCCN1CCCOc1ccc(-n2c(C(=O)N3CCCCC3)cc3ccccc32)cc1` ; system Histamine H3 receptor (Homo sapiens, UniProt Q9Y5N1)
Result :: > 8.00

New cases:
Query :: Provide the reported pKi (system: Histamine H3 receptor (Homo sapiens, UniProt Q9Y5N1)) for `C[C@@H]1CCCN1CCCOc1ccc(C(=O)CN2CCN(C(=O)C3CC3)CC2)cc1`
Result :: 7.00 to 10.00

Query :: Fetch value of pKi on Histamine H3 receptor (Homo sapiens, UniProt Q9Y5N1) for `Cc1cc(OCCCN2CCCCC2)ccc1C(=O)CN1CCOCC1` .
Result :: 7.00 to 10.00

Query :: Jot down pKi (Histamine H3 receptor (Homo sapiens, UniProt Q9Y5N1)) of CC(=O)N1CCN(CCCOc2ccc(C(=O)C(C)N3CCOCC3)cc2)CC1 (centres unmarked) .
Result :: < 6.00

Query :: Please report pKi with Histamine H3 receptor (Homo sapiens, UniProt Q9Y5N1) for item `O=c1ccc(Oc2ccc3c(c2)CCC2(CCN(C4CCC4)CC2)O3)n[nH]1` .
Result :: > 6.70

Query :: Report value only: pKi, Histamine H3 receptor (Homo sapiens, UniProt Q9Y5N1), `C[C@@H]1CCCN1CCCOc1ccc(C(=O)CN2CCN(C(=O)c3cccc4ccccc34)CC2)cc1`
Result :: 7.00 to 10.00

Query :: Provide the reported pKi (system: Histamine H3 receptor (Homo sapiens, UniProt Q9Y5N1)) for `O=C(CN1CCN(c2ccccc2)CC1)c1ccc(OCCCN2CCCC2)cc1`
Result :: 7.00 to 10.00
